Biological target: β-Mannosidase (Homo sapiens)
Construct: Human liver glycosidases were assayed; from tissue; host or cells: human liver
Sequence (O00462 18-879): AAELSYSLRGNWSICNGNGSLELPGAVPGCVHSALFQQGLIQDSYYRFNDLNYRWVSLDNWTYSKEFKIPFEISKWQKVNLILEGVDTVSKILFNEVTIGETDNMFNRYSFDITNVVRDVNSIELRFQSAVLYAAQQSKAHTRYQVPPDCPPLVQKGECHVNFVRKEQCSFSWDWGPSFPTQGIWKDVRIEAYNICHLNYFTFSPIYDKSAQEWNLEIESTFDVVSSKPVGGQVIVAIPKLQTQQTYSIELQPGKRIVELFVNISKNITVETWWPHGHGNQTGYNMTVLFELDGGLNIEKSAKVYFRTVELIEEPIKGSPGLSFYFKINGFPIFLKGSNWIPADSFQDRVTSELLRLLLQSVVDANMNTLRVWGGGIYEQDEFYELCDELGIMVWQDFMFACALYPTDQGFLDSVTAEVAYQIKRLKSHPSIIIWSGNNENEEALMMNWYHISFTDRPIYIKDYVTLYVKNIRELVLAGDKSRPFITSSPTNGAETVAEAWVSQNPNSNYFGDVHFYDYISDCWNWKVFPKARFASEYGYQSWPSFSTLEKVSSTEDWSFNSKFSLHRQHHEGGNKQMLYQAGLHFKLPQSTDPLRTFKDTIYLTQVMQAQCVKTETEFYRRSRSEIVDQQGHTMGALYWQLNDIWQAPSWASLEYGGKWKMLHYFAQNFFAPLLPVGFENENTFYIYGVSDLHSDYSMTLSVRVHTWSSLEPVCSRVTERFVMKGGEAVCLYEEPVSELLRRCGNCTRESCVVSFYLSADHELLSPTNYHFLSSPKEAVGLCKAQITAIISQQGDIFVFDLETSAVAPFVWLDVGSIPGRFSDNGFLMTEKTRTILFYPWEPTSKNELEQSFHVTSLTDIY
Test: inhibition of human liver β-mannosidase
Format: biochemical
Conditions: 1 mM inhibitor; read-out: % Inhibition of Glycosidase Activity, β-Mannosidase
experimental readout: inhibition at 1000 µM (%)
Provide only the numeric value, understood in %.

- NC[C@H]1O[C@H]([C@H](O)CO)[C@H](O)[C@@H]1O: 3
- OC[C@@H](O)[C@H]1N[C@H](CO)[C@@H](O)[C@H]1O: 18
- OC[C@@H](O)[C@H]1NC[C@@H](O)[C@H]1O: 0

The record that follows has no inhibition at 1000 µM shown yet.
Prompt: Supply inhibition at 1000 µM value. Item: OC[C@H]1N[C@H](CO)[C@@H](O)C(O)[C@@H]1O (stereo partly shown)
Response: 0

====

Molecular target: β-Galactosidase (Homo sapiens)
Construct: Human liver glycosidases were assayed; from tissue; host or cells: human liver
Sequence (P16278 29-677): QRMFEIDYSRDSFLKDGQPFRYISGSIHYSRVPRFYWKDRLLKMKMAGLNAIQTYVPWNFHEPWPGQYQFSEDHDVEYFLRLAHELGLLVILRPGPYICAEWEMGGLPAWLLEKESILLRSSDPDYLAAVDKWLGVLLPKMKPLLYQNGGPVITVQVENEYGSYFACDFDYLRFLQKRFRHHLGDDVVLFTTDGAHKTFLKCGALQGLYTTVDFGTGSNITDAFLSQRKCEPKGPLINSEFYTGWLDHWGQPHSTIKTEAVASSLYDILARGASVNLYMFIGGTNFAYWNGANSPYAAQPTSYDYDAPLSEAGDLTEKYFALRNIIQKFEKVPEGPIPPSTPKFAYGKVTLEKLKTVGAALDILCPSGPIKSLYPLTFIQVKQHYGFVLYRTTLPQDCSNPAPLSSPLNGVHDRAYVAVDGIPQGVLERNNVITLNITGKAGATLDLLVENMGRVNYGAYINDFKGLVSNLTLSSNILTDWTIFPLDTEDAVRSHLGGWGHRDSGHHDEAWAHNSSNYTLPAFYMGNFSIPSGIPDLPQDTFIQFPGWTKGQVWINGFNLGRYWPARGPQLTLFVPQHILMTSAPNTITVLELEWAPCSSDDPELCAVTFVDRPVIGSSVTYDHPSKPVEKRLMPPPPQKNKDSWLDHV
Experiment: inhibition of human liver β-galactosidase
Type: biochemical
Conditions: 1 mM inhibitor; read-out: % Inhibition of Glycosidase Activity, β-Galactosidase
inhibition at 1000 µM by entry:
Quick note: number first, unit second.

Prompt: Supply inhibition at 1000 µM value. Item: OC[C@@H](O)[C@H]1NC[C@@H](O)[C@H]1O [DIM (3)]
Response: 76%

====

Biological target: α-Galactosidase (Homo sapiens, UniProt P06280)
Construct: Human liver glycosidases were assayed; from tissue; host or cells: human liver
Sequence (P06280 32-429): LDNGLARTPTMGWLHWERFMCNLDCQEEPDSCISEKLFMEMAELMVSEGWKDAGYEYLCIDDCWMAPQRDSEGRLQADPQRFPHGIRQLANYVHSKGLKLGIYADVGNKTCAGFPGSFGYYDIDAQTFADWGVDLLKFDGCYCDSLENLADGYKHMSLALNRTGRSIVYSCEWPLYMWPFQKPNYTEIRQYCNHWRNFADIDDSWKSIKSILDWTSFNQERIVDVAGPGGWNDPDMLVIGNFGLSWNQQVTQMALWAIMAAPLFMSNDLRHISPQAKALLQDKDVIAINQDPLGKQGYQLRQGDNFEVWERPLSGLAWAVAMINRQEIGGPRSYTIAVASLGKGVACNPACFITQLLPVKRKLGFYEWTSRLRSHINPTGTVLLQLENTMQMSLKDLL
Assay: inhibition of human liver α-galactosidase
Assay type: biochemical
Conditions: 1 mM inhibitor; read-out: % Inhibition of Glycosidase Activity, α-Galactosidase
experimental readout: inhibition at 1000 µM (%)
Provide only the numeric value, understood in %.

- OC[C@@H](O)[C@H]1NC[C@@H](O)[C@H]1O: 0
- OC[C@@H](O)[C@H]1N[C@H](CO)[C@@H](O)[C@H]1O: 11
- OC[C@H]1N[C@H](CO)[C@@H](O)C(O)[C@@H]1O (stereo partly shown): 0

The record that follows has no inhibition at 1000 µM shown yet.
Prompt: Supply inhibition at 1000 µM value. Item: NC[C@H]1O[C@H]([C@H](O)CO)[C@H](O)[C@@H]1O
Response: 0
